- PROTOCOL: Approximate solubility of starting material at RT
- Assay type: physicochemical
- MEASUREMENT_CONTEXT: organic solvent or mixture; Acetone/H2O (9:1); RT (~27 °C)
ASSAY_READOUT: solubility

INSERT INTO results (molecule, meas_value) VALUES
  ('O=c1[nH]cnc2c(CN3C[C@H](CO)[C@@H](O)C3)c[nH]c12 [Glutarate Type A]', '< 1900 µg/mL');

---

- PROTOCOL: Kinetic solubility (37 °C/24 h)
- Type: physicochemical
- MEASUREMENT_CONTEXT: water
ASSAY_READOUT: solubility kinetic at 24 h

INSERT INTO results (compound, assay_readout, meas_value) VALUES
  ('O=c1[nH]cnc2c(CN3C[C@H](CO)[C@@H](O)C3)c[nH]c12 [Glutarate Type A]', 'solubility kinetic at 24 h', '> 16.8 mg/mL');
